// data source = PubChem BioAssay (NCATS)

experiment: Confirmatory qHTS to identify inhibitors of SARS-CoV-2 cell entry (AID 1645844); conditions: SARS-CoV-2 pseudotyped particle cell entry, luciferase; series mostly up to 57.2 µM; note: potency is the fitted concentration of half-maximal effect; nearly all actives have a fitted effect of over 45% in size
Results filed as inconclusive are left out. Active and inactive are the calls of the source. Calls come from the whole dose curve.
measured.property: Potency

• CC[C@]1(O)C[C@H]2CN(CCC3=c4ccccc4=N[C]3[C@@](C(=O)OC)(c3cc4c(cc3OC)N(C)[C@H]3[C@@](O)(C(N)=O)[C@H](O)[C@]5(CC)C=CCN6CC[C@]43[C@@H]65)C2)C1 = 0.0764 µM (active)
• NCC(=O)Nc1ccc(-n2nc(C(F)(F)F)cc2-c2ccc3c(ccc4ccccc43)c2)cc1 = 15.2 µM (active)
• COc1cc([C@@H]2c3cc4c(cc3[C@@H](O[C@@H]3O[C@@H]5CO[C@@H](C)O[C@@H]5[C@H](O)[C@@H]3O)[C@H]3COC(=O)[C@H]23)OCO4)cc(OC)c1O = 0.541 µM (active)
